- tested-target: T1, human tissue factor pathway inhibitor (TFPI) (human, UniProt P10646 29-304, limits assumed); note: test concentration or dose not given here
- T1 sequence (looked up): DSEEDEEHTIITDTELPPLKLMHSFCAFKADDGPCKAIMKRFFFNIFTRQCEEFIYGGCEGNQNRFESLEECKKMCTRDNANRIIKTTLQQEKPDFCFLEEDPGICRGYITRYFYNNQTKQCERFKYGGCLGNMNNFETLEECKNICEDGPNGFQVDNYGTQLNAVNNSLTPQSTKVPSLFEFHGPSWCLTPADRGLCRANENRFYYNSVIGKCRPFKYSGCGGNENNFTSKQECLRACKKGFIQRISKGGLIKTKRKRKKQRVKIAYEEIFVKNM
- assay-protocol: cell-based or functional assay
Exam item: assign TRUE to entries whose dPT in hemoA plasma is below 60 s and FALSE to entries at or above 60 s. Note that a value of exactly 60 s receives FALSE.

Q: Could you please tell me whether dPT in hemoA plasma recorded for TP-2G6 Fab (Fab, V domains shown, Human Fab from HuCal Gold, expressed in E. coli TG1) VH: QVQLQQSGPGLVKPSQTLSLTCAISGDSVSSSSAAWSWIRQSPGRGLEWLGIIYYRSKWYNDYAVSVKSRITINPDTSKNQFSLQLNSVTPEDTAVYYCARHSMVGFDVWGQGTLVTVSS VL: DIVLTQSPATLSLSPGERATLSCRASQYVTSSYLAWYQQKPGQAPRLLIYGSSRATGVPARFSGSGSGTDFTLTISSLEPEDFATYYCQQYSSSPITFGQGTKVEIKR is less than 60 s?
A: FALSE

Q: Find out if reported dPT in hemoA plasma for TP-4G8 Fab (Fab, V domains shown, Human Fab from HuCal Gold, expressed in E. coli TG1) VH: QVQLVESGGGLVQPGGSLRLSCAASGFTFSTYAMHWVRQAPGKGLEWVSTISGYGSFTYYADSVKGRFTISRDNSKNTLYLQMNSLRAEDTAVYYCARNGRKYGQMDNWGQGTLVTVSS VL: DIELTQPPSVSVAPGQTARISCSGDKLGSKSVHWYQQKPGQAPVLVIYRDTDRPSGIPERFSGSNSGNTATLTISGTQAEDEADYYCQTYDYILNVFGGGTKLTVLG is less than 60 s
A: FALSE

Q: Here's an entry: TP-3G3 Fab (Fab, V domains shown, Human Fab from HuCal Gold, expressed in E. coli TG1) VH: QVQLVESGGGLVQPGGSLRLSCAASGFTFSSYSMSWVRQAPGKGLEWVSSISSSSSNTYYGDSVKGRFTISRDNSKNTLYLQMNSLRAEDTAVYYCARMHYKGMDIWGQGTLVTVSS VL: DIQMTQSPSSLSASVGDRVTITCRASQNIHSHLNWYQQKPGKAPKLLIYDASSLQSGVPSRFSGSGSGTDFTLTISSLQPEDFAVYYCQQYYDYPLTFGQGTKVEIKR . Is its dPT in hemoA plasma below 60 s?
A: FALSE

Q: Report whether reported dPT in hemoA plasma is lower than 60 s (strictly) for TP-4B7 Fab (Fab, V domains shown, Human Fab from HuCal Gold, expressed in E. coli TG1) VH: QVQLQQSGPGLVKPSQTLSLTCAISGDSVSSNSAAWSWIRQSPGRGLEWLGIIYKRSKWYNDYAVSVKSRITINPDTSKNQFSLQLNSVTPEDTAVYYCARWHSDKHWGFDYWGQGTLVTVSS VL: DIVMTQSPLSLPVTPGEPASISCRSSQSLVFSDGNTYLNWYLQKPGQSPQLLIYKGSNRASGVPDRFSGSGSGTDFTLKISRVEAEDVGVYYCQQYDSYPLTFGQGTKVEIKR
A: TRUE

Q: dPT in hemoA plasma under 60 s? Item: TP-2C1 Fab (Fab, V domains shown, Human Fab from HuCal Gold, expressed in E. coli TG1) VH: QVQLVESGGGLVQPGGSLRLSCAASGFTFSPYVMSWVRQAPGKGLEWVSSISSSSSNTYYADSVKGRFTISRDNSKNTLYLQMNSLRAEDTAVYYCARGDSYMYDVWGQGTLVTVSS VL: DIELTQPPSVSVAPGQTARISCSGDSIGSYYAHWYQQKPGQAPVLVIYYDSKRPSGIPERFSGSNSGNTATLTISGTQAEDEADYYCQAYTGQSISRVFGGGTKLTVLG
A: FALSE
